# System: green foxtail
# ASSAY PROCEDURE: Upland soil application test (Test 2)
# Format: in vivo
# MEASUREMENT SETUP: 30 g ai/a, soil spray before emergence, 30 days later
MEASURE NAME: Herbicidal effects Green foxtail

Can you share its Herbicidal effects Green foxtail? I mean this compound: "C=C(Cl)CON=Cc1ccccc1Oc1nc(OC)cc(OC)n1"
5 (0-5 (Death))

Also "COc1cc(OC)nc(Oc2ccccc2C=NOCC=Cc2c(F)cccc2F)n1" ?
5 (0-5 (Death))

Also "COc1cc(OC)nc(Oc2ccccc2C=NOCC=Cc2ccc(Cl)cc2Cl)n1" ?
5 (0-5 (Death))

Also COC(=O)c1ccccc1Oc1nc(OC)cc(OC)n1 [A, reference compound] ?
5 (0-5 (Death))

Also "COc1cc(OC)nc(Oc2ccccc2C=NOCC=Cc2cccc(Cl)c2Cl)n1" ?
4 (6-10 (Severe damages))

* * *

What Injury Rice was measured for each of the following?
# System: rice
# ASSAY PROCEDURE: Treatment of soil under submerged condition, post-emergence (Test 5), injury
# Assay type: in vivo
# MEASUREMENT SETUP: 30 g ai/a granule, 30 days later

Can you share its Injury Rice? I mean this compound: "CC=CCON=Cc1ccccc1Oc1nc(OC)cc(OC)n1"
1 (71-90 (Slight damages))

Also COC(=O)c1ccccc1Oc1nc(OC)cc(OC)n1 [A, reference compound] ?
5 (0-5 (Death))

Also "COc1cc(OC)nc(Oc2ccccc2C=NOCC=C(C)C)n1" ?
0 (91-100 (No damages))

Also "COc1cc(OC)nc(Oc2ccccc2C=NOCC=Cc2ccc(C)cc2)n1" ?
1 (71-90 (Slight damages))

Also "COc1cc(OC)nc(Oc2ccccc2C=NOCC=Cc2cccc(Cl)c2Cl)n1" ?
0 (91-100 (No damages))

Also "COc1cc(OC)nc(Oc2ccccc2C=NOCC#Cc2ccccc2)n1" ?
0 (91-100 (No damages))

Also "COc1cc(OC)nc(Oc2ccccc2C=NOCc2ccc(Cl)cc2Cl)n1" ?
0 (91-100 (No damages))

Also "C=C(C)CON=Cc1ccccc1Oc1nc(OC)cc(OC)n1" ?
0 (91-100 (No damages))

Also "COc1cc(OC)nc(Oc2ccccc2C=NOC(C)C)n1" ?
0 (91-100 (No damages))

* * *

What Injury Peanut was measured for each of the following?
# System: peanut
# ASSAY PROCEDURE: Upland soil application test (Test 2), crop injury
# Format: in vivo
# MEASUREMENT SETUP: 30 g ai/a, soil spray before emergence, 30 days later

Can you share its Injury Peanut? I mean this compound: COc1cc(OC)nc(Oc2ccccc2C=O)n1 [B, reference compound]
5 (0-5 (Death))

Also "COc1cc(OC)nc(Oc2ccccc2C=NOCC=Cc2ccc(C(F)(F)F)cc2)n1" ?
0 (91-100 (No damages))

Also COC(=O)c1ccccc1Oc1nc(OC)cc(OC)n1 [A, reference compound] ?
5 (0-5 (Death))

Also "COc1cc(OC)nc(Oc2ccccc2C=NOCc2ccc(C)cc2)n1" ?
0 (91-100 (No damages))

Also "COc1cc(OC)nc(Oc2ccccc2C=NOCC=Cc2ccc(C)cc2)n1" ?
0 (91-100 (No damages))

Also "COc1cccc(C=CCON=Cc2ccccc2Oc2nc(OC)cc(OC)n2)c1" ?
0 (91-100 (No damages))

Also "COc1cc(OC)nc(Oc2ccccc2C=NOCc2ccc(Cl)cc2Cl)n1" ?
0 (91-100 (No damages))

Also "COc1cc(OC)nc(Oc2ccccc2C=NOCC=C(C)Cl)n1" ?
0 (91-100 (No damages))

Also "COc1cc(OC)nc(Oc2ccccc2C=NOCCc2ccccc2)n1" ?
0 (91-100 (No damages))

Also "COc1cc(OC)nc(Oc2ccccc2C=NOCC=Cc2ccccc2C(F)(F)F)n1" ?
0 (91-100 (No damages))

Also "COc1cc(OC)nc(Oc2ccccc2C=NOCC#Cc2ccccc2)n1" ?
0 (91-100 (No damages))

Also "CC#CCON=Cc1ccccc1Oc1nc(OC)cc(OC)n1" ?
0 (91-100 (No damages))

Also "C=C(Cl)CON=Cc1ccccc1Oc1nc(OC)cc(OC)n1" ?
0 (91-100 (No damages))

Also "COc1cc(OC)nc(Oc2ccccc2C=NOCC=Cc2ccc(Cl)c(Cl)c2)n1" ?
0 (91-100 (No damages))

Also "C=CCON=Cc1ccccc1Oc1nc(OC)cc(OC)n1" ?
0 (91-100 (No damages))

Also "COc1cc(OC)nc(Oc2ccccc2C=NOCC=Cc2ccccc2Cl)n1" ?
0 (91-100 (No damages))

Also "COc1cc(OC)nc(Oc2ccccc2C=NOCC=Cc2ccc(Cl)cc2)n1" ?
0 (91-100 (No damages))

Also "COc1cc(OC)nc(Oc2ccccc2C=NO)n1" ?
0 (91-100 (No damages))

Also C=CC(C)ON=Cc1ccccc1Oc1nc(OC)cc(OC)n1 (stereo not shown) ?
0 (91-100 (No damages))

* * *

What Herbicidal effects Green foxtail was measured for each of the following?
# Tested on: green foxtail
# ASSAY PROCEDURE: Upland soil application test (Test 2)
# Format: in vivo
# MEASUREMENT SETUP: 30 g ai/a, soil spray before emergence, 30 days later

green foxtail / Herbicidal effects Green foxtail / COc1cc(OC)nc(Oc2ccccc2C=O)n1 [B, reference compound] : value?
4 (6-10 (Severe damages))

Also "COc1cc(OC)nc(Oc2ccccc2C=NOCC=Cc2ccccc2Cl)n1" ?
5 (0-5 (Death))

Also "CC#CCON=Cc1ccccc1Oc1nc(OC)cc(OC)n1" ?
4 (6-10 (Severe damages))

Also "COc1cc(OC)nc(Oc2ccccc2C=NOCC=Cc2cccc(Cl)c2)n1" ?
5 (0-5 (Death))

Also "C=C(C)CON=Cc1ccccc1Oc1nc(OC)cc(OC)n1" ?
5 (0-5 (Death))

Also "CCc1ccc(C=CCON=Cc2ccccc2Oc2nc(OC)cc(OC)n2)cc1" ?
5 (0-5 (Death))

Also COc1cc(OC)nc(Oc2ccccc2C=NOC(C)c2ccccc2)n1 (stereo not shown) ?
4 (6-10 (Severe damages))

Also "CCCC=CCON=Cc1ccccc1Oc1nc(OC)cc(OC)n1" ?
5 (0-5 (Death))

Also "COc1cc(OC)nc(Oc2ccccc2C=NOCC=Cc2ccccc2C)n1" ?
5 (0-5 (Death))

Also "COc1cc(OC)nc(Oc2ccccc2C=NOCc2ccc(Cl)cc2Cl)n1" ?
3 (11-40 (Medium damages))

Also "COc1cc(OC)nc(Oc2ccccc2C=NOCc2ccc(Cl)c(Cl)c2)n1" ?
4 (6-10 (Severe damages))

Also "COc1cc(OC)nc(Oc2ccccc2C=NOCC=Cc2ccccc2)n1" ?
5 (0-5 (Death))

Also "COc1cc(OC)nc(Oc2ccccc2C=NOCc2ccccc2)n1" ?
5 (0-5 (Death))

Also "COc1cc(OC)nc(Oc2ccccc2C=NOCC=C(C)Cl)n1" ?
4 (6-10 (Severe damages))

Also "COc1cc(OC)nc(Oc2ccccc2C=NOCc2ccccc2Cl)n1" ?
3 (11-40 (Medium damages))

Also "COc1cc(OC)nc(Oc2ccccc2C=NOCC=Cc2ccc(C)cc2)n1" ?
5 (0-5 (Death))

Also "COc1cc(OC)nc(Oc2ccccc2C=NOCC=Cc2ccc(Cl)cc2)n1" ?
5 (0-5 (Death))

Also "COc1cc(OC)nc(Oc2ccccc2C=NOC2CCCCC2)n1" ?
4 (6-10 (Severe damages))

Also "COc1cccc(C=CCON=Cc2ccccc2Oc2nc(OC)cc(OC)n2)c1" ?
5 (0-5 (Death))

Also "COc1cc(OC)nc(Oc2ccccc2C=NOCC=Cc2ccc(Cl)c(Cl)c2)n1" ?
4 (6-10 (Severe damages))

Also "CC=CCON=Cc1ccccc1Oc1nc(OC)cc(OC)n1" ?
5 (0-5 (Death))

Also "COc1cc(OC)nc(Oc2ccccc2C=NO)n1" ?
5 (0-5 (Death))

Also "COc1cc(OC)nc(Oc2ccccc2C=NOCC=C(C)C)n1" ?
5 (0-5 (Death))

Also "CON=Cc1ccccc1Oc1nc(OC)cc(OC)n1" ?
5 (0-5 (Death))

Also "COc1cc(OC)nc(Oc2ccccc2C=NOCc2cccc(C)c2)n1" ?
5 (0-5 (Death))

Also "COc1cc(OC)nc(Oc2ccccc2C=NOC(C)C)n1" ?
5 (0-5 (Death))

Also "COc1cc(OC)nc(Oc2ccccc2C=NOCc2cccc3ccccc23)n1" ?
4 (6-10 (Severe damages))

Also "COc1cc(OC)nc(Oc2ccccc2C=NOCCc2ccccc2)n1" ?
3 (11-40 (Medium damages))

Also "C=CCON=Cc1ccccc1Oc1nc(OC)cc(OC)n1" ?
5 (0-5 (Death))

Also "COc1cc(OC)nc(Oc2ccccc2C=NOCC=Cc2ccc(F)cc2)n1" ?
4 (6-10 (Severe damages))

Also C=CC(C)ON=Cc1ccccc1Oc1nc(OC)cc(OC)n1 (stereo not shown) ?
5 (0-5 (Death))

Also "COc1cc(OC)nc(Oc2ccccc2C=NOCC=CCl)n1" ?
5 (0-5 (Death))

Also "COc1cc(OC)nc(Oc2ccccc2C=NOCC=Cc2ccccc2Br)n1" ?
4 (6-10 (Severe damages))

Also "COc1cc(OC)nc(Oc2ccccc2C=NOCC=Cc2cccc(C)c2)n1" ?
5 (0-5 (Death))
